System: K. pneumoniae ATCC700603
Experiment: MIC, CLSI broth microdilution, Test Example 2
Format: cell-based
Settings: Klebsiella pneumoniae, ATCC700603; SHV18 ESBL producing strain; cation-adjusted Iso-Sensitest broth containing human Apo-transferrin; 5×10^5 cfu/mL; read-out: Minimum Inhibitory Concentration (MIC) K. pneumoniae ATCC 700603
Measure: MIC (µg/mL)
Your answer should be a plain number; it is taken to be in µg/mL.

Below, each entry is followed by its recorded MIC result.
# Compound, MIC [µg/mL]
measured = [
    ("Nc1nc(/C(=N/O[C@@H](CC(=O)O)C(=O)[O-])C(=O)N[C@@H]2C(=O)N3C(c4nnn[nH]4)=C(C[N+]4(CCNC(=O)c5cc(O)c(O)c(F)c5)CCCC4)CS[C@H]23)c(Cl)s1", 0.125),
    ("Cc1cc2cc(O)c(O)cc2c[n+]1CC1=C(c2nnn[nH]2)N2C(=O)[C@@H](NC(=O)/C(=N\\OC(C)(C)C(=O)O)c3nsc(N)n3)[C@H]2SC1.[Na+]", 0.25),
    ("C[N+]1(CC2=C(c3nnn[n-]3)N3C(=O)[C@@H](NC(=O)/C(=N\\O[C@@H](CC(=O)[O-])C(=O)[O-])c4csc(N)n4)[C@H]3SC2)CCN(C(=O)c2ccc(O)c(O)c2Cl)CC1.[Na+].[Na+]", 0.125),
    ("CC(C)(O/N=C(\\C(=O)N[C@@H]1C(=O)N2C(c3nnn[nH]3)=C(C[N+]3(C)[C@@H]4CC[C@H]3C[C@@H](NC(=O)c3cc(O)c(O)c(F)c3)C4)CS[C@H]12)c1nsc(N)n1)C(=O)O.[Na+] (some centres unmarked)", 0.25),
]

Form field, MIC with K. pneumoniae ATCC700603, item `CC(C)(O/N=C(\C(=O)N[C@@H]1C(=O)N2C(c3nnn[nH]3)=C(C[N+]3(CCNC(=O)c4cc(O)c(O)c(Cl)c4)CCCC3)CS[C@H]12)c1nsc(N)n1)C(=O)[O-]` : 0.25

====

System: K. pneumoniae ATCCBAA-1705
Assay: MIC, CLSI broth microdilution, Test Example 1
Format: cell-based
Details: Klebsiella pneumoniae, ATCCBAA1705; KPC-2 carbapenemase producing strain; cation-adjusted Mueller Hinton broth containing human apo-transferrin; 5×10^5 cfu/mL; read-out: Minimum Inhibitory Concentration (MIC) K. pneumoniae ATCCBAA-1705
Measure: MIC

# Molecule, Result Value
rows = [
    ("CC(C)(O/N=C(\\C(=O)N[C@@H]1C(=O)N2C(c3nnn[n-]3)=C(C[N+]3(CCNC(=O)c4ccc(O)c(O)c4F)CCCC3)CS[C@H]12)c1csc(N)n1)C(=O)[O-].[Na+]", "≤ 0.031 µg/mL"),
    ("CC(C)(O/N=C(\\C(=O)N[C@@H]1C(=O)N2C(c3nn[n-]n3)=C(C[n+]3ccc(C(=O)c4ccc(O)c(O)c4Cl)cc3)CS[C@H]12)c1csc(N)n1)C(=O)[O-].[Na+]", "≤ 0.031 µg/mL"),
    ("CC(C)(O/N=C(\\C(=O)N[C@@H]1C(=O)N2C(c3nnn[n-]3)=C(C[N+]3(CCNC(=O)c4ccc(O)c(O)c4Cl)CCCC3)CS[C@H]12)c1csc(N)n1)C(=O)[O-].[Na+]", "≤ 0.031 µg/mL"),
    ("CC(C)(O/N=C(\\C(=O)N[C@@H]1C(=O)N2C(c3nnn[nH]3)=C(C[n+]3cccc4c3CCCN4C(=O)c3ccc(O)c(O)c3Cl)CS[C@H]12)c1csc(N)n1)C(=O)[O-]", "0.063 µg/mL"),
]

Test item CC(C)(O/N=C(\C(=O)N[C@@H]1C(=O)N2C(c3nnn[n-]3)=C(C[N+]34CCCC3(CNC(=O)c3ccc(O)c(O)c3Cl)CCC4)CS[C@H]12)c1cnc(N)s1)C(=O)[O-].[Na+] (some centres unmarked) ; K. pneumoniae ATCCBAA-1705; reported MIC was ≤ 0.031 µg/mL
